# Tested on: UACC-62 melanoma
# methodSummary: NCI-60 one-dose screen, 48 h
# measurementContext: 10 µM unless noted
# Experimental: Growth inhibition of the UACC-62 human tumor cell line is measured as a screen for anti-cancer activity. Cells are grown in 96 well plates and exposed to the test compound for 48 hours. Compounds are tested at a single concentration, which is 10^-5 M for most compounds. The reported endpoint is percent growth (GI% or GIPRCNT), where numbers from 0 - 100% represent growth inhibition, and numbers from -100% - 0 represent cell death. For example, a value of 40 represents 60% growth inhibition. […]
The panel holds about 83,000 compounds, 20% with a hit somewhere; the sample as a whole holds those more often. Activity calls are given as the source filed them. The calls were made as follows: active = growth percent below 10; inactive = the rest.
Labels: active, inactive

compound: CCOc1cccc(/C=N\Nc2nc(=O)cc(C(=O)OC)s2)c1O
targetEntity: UACC-62 melanoma
discreteLabel: inactive
//
compound: Cn1c(C(=O)c2cccc3ccccc23)nc2ccccc21
targetEntity: UACC-62 melanoma
discreteLabel: active
//
compound: COc1ccc(-c2nnc(COc3ccc(C(=O)/C=C/c4ccco4)cc3)o2)cc1
targetEntity: UACC-62 melanoma
discreteLabel: inactive
//
compound: Nc1nc(-c2ccccc2Br)nn1-c1nc2ccccc2s1
targetEntity: UACC-62 melanoma
discreteLabel: inactive
//
compound: COC(=O)/C(CCC=C(C)C)=C1\[C@@H](OC(C)=O)C[C@@]2(C)[C@H]1C[C@@H](O)[C@H]1[C@@]3(C)CC[C@H](NCCCNCCCCNCCCN)[C@@H](C)[C@@H]3CC[C@@]12C
targetEntity: UACC-62 melanoma
discreteLabel: inactive
//
compound: COc1ccccc1N1C(=N)S/C(=C\c2ccc(OCc3ccccc3F)cc2)C1=O
targetEntity: UACC-62 melanoma
discreteLabel: inactive
//
compound: CN1CCN(Cc2ccc(NC(=O)c3[nH]ncc3Nc3cc(OC4CCCC4)ncn3)cc2)CC1
targetEntity: UACC-62 melanoma
discreteLabel: inactive
//
compound: CCCCCCC(O)(c1ccc(F)cc1)C(CN1CCOCC1)c1ccccc1 (centres undefined)
targetEntity: UACC-62 melanoma
discreteLabel: inactive
//
compound: N#C/C(=C\c1c(-c2ccccc2)[nH]c2ccccc12)S(=O)(=O)c1ccccc1
targetEntity: UACC-62 melanoma
discreteLabel: inactive

----------
Consider the following molecules and their measured growth readings.
# Test system: UACC-257 melanoma
# methodSummary: NCI-60 one-dose screen, 48 h (100 = growth as untreated, 0 = no growth, -100 = all killed)
# measurementContext: 10 µM unless noted
# Protocol: Cells are grown in 96 well plates and exposed to the test compound for 48 hours. Compounds are tested at a single concentration, which is 10^-5 M for most compounds. The reported endpoint is percent growth (GI% or GIPRCNT), where numbers from 0 - 100% represent growth inhibition, and numbers from -100% - 0 represent cell death. For example, a value of 40 represents 60% growth inhibition. A value of 0 means no net growth occurred over the course of the experiment. […]
This is part of a sample that, as a whole, favours compounds with a hit. Of some 83,000 tested, about 20% had one in any assay.
measurementName: growth (%)

molecule: Nc1nc(N)c2c(n1)NC1(C=C(O)c3ccccc31)C1=C(N2)c2ccccc2C1=O (stereo not given)
targetEntity: UACC-257 melanoma
endpointValue: 120
--
molecule: O=C1OC(c2ccccc2)(c2ccccc2)c2ccsc21
targetEntity: UACC-257 melanoma
endpointValue: 103
--
molecule: CN1CCN(Cc2ccc(NC(=O)c3cncc(C#Cc4nc(N)nc5[nH]ncc45)c3)cc2C(F)(F)F)CC1
targetEntity: UACC-257 melanoma
endpointValue: 83.1
--
molecule: COc1cccc(C(=O)Cn2cc(/C=C(\C#N)S(=O)(=O)c3ccccc3)c3ccccc32)c1
targetEntity: UACC-257 melanoma
endpointValue: 89.9
--
molecule: Cc1cccc2c(=O)c3c(sc12)c(NCCN)nc1ccccc13
targetEntity: UACC-257 melanoma
endpointValue: -17.6
--
molecule: O=c1c(-c2nc3ccccc3[nH]2)cc2ccccc2n1Cc1cn(Cc2ccccc2Cl)nn1
targetEntity: UACC-257 melanoma
endpointValue: 56.8
--
molecule: CN(C)CCNc1cc(-c2ccccc2)nc2ccccc12
targetEntity: UACC-257 melanoma
endpointValue: -74.5
--
molecule: O=C(Nc1ccc(Br)cc1F)c1cc(Cl)ccc1O
targetEntity: UACC-257 melanoma
endpointValue: -14
--
molecule: COc1ccc(Br)c(/C=C2\SC(=Nc3ccc(O)cc3)NC2=O)c1
targetEntity: UACC-257 melanoma
endpointValue: 102
--
molecule: COC(=O)c1c2c(c(C)[n+]([O-])c1C)C(=O)C=C(NCc1ccc(F)c(F)c1)C2=O
targetEntity: UACC-257 melanoma
endpointValue: -83
--
molecule: CC/C=C\C[C@H](O)C/C=C1/C(=O)C=C[C@@H]1C/C=C\CCCC(=O)OCCS(=O)(=O)c1ccccc1
targetEntity: UACC-257 melanoma
endpointValue: 66.8
--
molecule: COc1cccc2c1C=C1CCCCC3=Cc4c(OC)cccc4OC13O2
targetEntity: UACC-257 melanoma
endpointValue: 62.1
--
molecule: CN1C(=O)N(C)C2Nn3c(s/c(=C\c4ccc(Cl)cc4Cl)c3=O)=NC21 (stereo not given)
targetEntity: UACC-257 melanoma
endpointValue: 84.5
--
molecule: O=C(CCc1nnc2sc(Cc3ccccc3Cl)nn12)c1nc2ncccc2[nH]1
targetEntity: UACC-257 melanoma
endpointValue: 107
--
molecule: CCOC(=O)c1cc2c(n1Cc1ccccc1)-c1oncc1CCC2
targetEntity: UACC-257 melanoma
endpointValue: 82.5
--
molecule: c1ccc2c(c1)oc1cc3sccc3nc12
targetEntity: UACC-257 melanoma
endpointValue: 104
--
molecule: COc1ccc(CCN2C(=O)/C(=C/c3ccc(C4Oc5ccccc5C5CC(c6cccc(OC)c6)=NN54)cc3)SC2=S)cc1 (stereo not given)
targetEntity: UACC-257 melanoma
endpointValue: 101
--
molecule: O=C(Nc1ccc(Br)cc1F)c1cc(F)ccc1O
targetEntity: UACC-257 melanoma
endpointValue: -11.2
--
molecule: COc1cc(/C=C2\CN(C)C/C(=C\c3cc(CN4CCCC4)c(O)c(OC)c3)C2=O)cc(CN2CCCC2)c1O
targetEntity: UACC-257 melanoma
endpointValue: 93.7
--
molecule: CN1CCN(Cc2ccc(C(=O)Nc3cncc(C#Cc4cnc5cccnn45)c3)cc2C(F)(F)F)CC1
targetEntity: UACC-257 melanoma
endpointValue: 19.2
